Known ELISA OD of a selection of binders
# measuredTarget: T1, recombinant MS4A4A soluble polypeptide JS5
# T1 construct: also called JS5.His
# assayDetails: ELISA, 0.33 ug/ml antibody
observable: ELISA OD

[[record]]
binder = "anti-MS4A4A antibody 4A-380 (antibody, V domains shown) VH: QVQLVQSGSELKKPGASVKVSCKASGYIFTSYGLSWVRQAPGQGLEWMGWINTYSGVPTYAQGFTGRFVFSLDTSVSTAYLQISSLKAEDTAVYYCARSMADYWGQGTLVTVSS VL: DVVMTQSPLSLPVTLGQPASISCKSSRSLLYSSGKTYLSWFQQRPGQSPRRLIYLVSKLDSGVPDRFSGSGSGTDFTLKISRVEAEDVGVYYCWQGIDFHQTFGGGTKVEIK"
result = 0.916

[[record]]
binder = "anti-MS4A4A antibody 4A-376 (antibody, V domains shown, full human IgG) VH: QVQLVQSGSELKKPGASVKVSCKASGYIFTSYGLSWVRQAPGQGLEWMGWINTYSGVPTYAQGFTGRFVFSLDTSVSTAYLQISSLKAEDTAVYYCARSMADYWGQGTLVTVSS VL: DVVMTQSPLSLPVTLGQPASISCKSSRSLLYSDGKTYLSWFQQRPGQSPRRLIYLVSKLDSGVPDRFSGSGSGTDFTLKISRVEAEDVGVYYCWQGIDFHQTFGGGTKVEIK"
result = 1.03

[[record]]
binder = "anti-MS4A4A antibody 4A-379 (antibody, V domains shown) VH: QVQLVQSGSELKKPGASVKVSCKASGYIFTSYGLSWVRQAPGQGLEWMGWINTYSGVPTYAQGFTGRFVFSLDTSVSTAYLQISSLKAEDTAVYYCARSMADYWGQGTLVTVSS VL: DVVMTQSPLSLPVTLGQPASISCKSSRSLLYSAGKTYLSWFQQRPGQSPRRLIYLVSKLDSGVPDRFSGSGSGTDFTLKISRVEAEDVGVYYCWQGIDFHQTFGGGTKVEIK"
result = 0.812

[[record]]
binder = "anti-MS4A4A antibody 4A-332 (antibody, human IgG1, V domains shown, humanized 4A-21; human IgG1/kappa) VH: QVQLVQSGSELKKPGASVKVSCKASGYIFTSYGLSWVRQAPGQGLEWMGWINTYSGVPTYAQGFTGRFVFSLDTSVSTAYLQISSLKAEDTAVYYCARSLVDYWGQGTLVTVSS VL: DVVMTQSPLSLPVTLGQPASISCKSSQSLLYSDGKTYLSWFQQRPGQSPRRLIYLVSKLDSGVPDRFSGSGSGTDFTLKISRVEAEDVGVYYCWQGIDFHQTFGGGTKVEIK"
result = 0.851

[[record]]
binder = "anti-MS4A4A antibody 4A-314 (antibody, V domains shown, full human IgG) VH: QVQLVQSGAEVKKPGASVKVSCKASGYTFTNYWMQWVRQAPGQGLEWMGTTLPGHGDTRYAQKFQGRVTMTRDTSTSTVYMELSSLRSEDTAVYYCAREEVYYGFRSYWYFDVWGRGTLVTVSS VL: EIVLTQSPATLSLSPGERATLSCRASESVDNYGVSRMNWYQQKPGQAPRLLIYGASNQGSGIPARFSGSGSGTDFTLTISSLEPEDFAVYYCQQSKEVPPTFGGGTKVEIK"
result = 0.682

